# System under test: Human immunodeficiency virus type 1 reverse transcriptase (Human immunodeficiency virus 1, UniProt Q72547, V106A)
# Experimental details: Inhibition of HIV1 reverse transcriptase V106A mutant
Ki by entry:
The response must be a number in nM with no trailing unit.

Molecule: Cc1c(C(C)c2c(F)cccc2F)nc(N2CCOCC2)[nH]c1=O (stereo unspecified)
Ki [nM]: 500
//
Molecule: CC(c1cc(=O)[nH]c(N(C)C)n1)c1c(F)cccc1F (stereo unspecified)
Ki [nM]: 500
//
Molecule: O=c1cc(Cc2c(F)cccc2F)nc(N2CCSCC2)[nH]1
Ki [nM]: 500
//
Molecule: Cc1c(Cc2c(F)cccc2F)nc(N2CCC(C)CC2)[nH]c1=O
Ki [nM]: 500
//
Molecule: O=c1cc(Cc2c(F)cccc2F)nc(N2CCOCC2)[nH]1
Ki [nM]: 2900

From here, focus on the item given below.
State its Ki for this molecule: `Cc1c(Cc2c(F)cccc2F)nc(N2CCSCC2)[nH]c1=O`
90

###

# Test system: Human immunodeficiency virus 1
# Experimental details: Antiviral activity against HIV1 with reverse transcriptase K103N mutation in MT4 cells assessed as inhibition of viral induced cytopathic effect by MTT method
# Format: functional, organism-based
# Experimental context: Human immunodeficiency virus 1, MT4
pEC50: −log10 of the molar value.
Parameter threshold = 6. Response is Condition met when pEC50 meets or exceeds it, else Condition not met.

Compound: Cc1ccnc2c1NC(=O)c1cccnc1N2C1CC1
System under test: Human immunodeficiency virus 1
Assigned category: Condition not met

Compound: CCN(C)c1nc(C(C)c2c(F)cccc2F)c(C)c(=O)[nH]1 (stereo not drawn)
System under test: Human immunodeficiency virus 1
Assigned category: Condition met

Compound: Cc1c(C(C)c2c(F)cccc2F)nc(N(C)C)[nH]c1=O (stereo not drawn)
System under test: Human immunodeficiency virus 1
Assigned category: Condition met

Is it the case that O=C1Nc2ccc(Cl)cc2C(C#CC2CC2)(C(F)(F)F)O1 (single isomer, unassigned) has pEC50 reaching or exceeding 6?
Condition met

Determine whether this compound has pEC50 no lower than 6: Cc1c(C(C)c2c(F)cccc2F)nc(N2CCC(C)CC2)[nH]c1=O (stereo not drawn)
Condition met

Check the entry `O=c1cc(Cc2c(F)cccc2F)nc(N2CCCCC2)[nH]1` : does pEC50 equal or exceed 6?
Condition not met

Reported pEC50 reaches at least 6 for `O=c1cc(Cc2c(F)cccc2F)nc(N2CCSCC2)[nH]1` ?
Condition not met

Please indicate if the recorded pEC50 for Cc1c(Cc2c(F)cccc2F)nc(N2CCCC(C)C2)[nH]c1=O (stereo not drawn) meets or exceeds 6.
Condition not met

# check: pEC50 of CCCN(C)c1nc(C(C)c2c(F)cccc2F)c(C)c(=O)[nH]1 (stereo not drawn) is greater than or equal to 6
Condition met

Has CC1CCCN(c2nc(Cc3c(F)cccc3F)cc(=O)[nH]2)C1 (stereo not drawn) a recorded pEC50 greater than or equal to 6?
Condition not met

Item `CN(C)c1nc(Cc2c(F)cccc2F)cc(=O)[nH]1` with pEC50 of 6 or above?
Condition not met

Record `Cc1c(Cc2c(F)cccc2F)nc(N2CCCC2)[nH]c1=O` ; criterion: pEC50 no lower than 6. Met?
Condition not met

Quick check, pEC50 >= 6? Cc1c(C(C)c2c(F)cccc2F)nc(N2CCCC2)[nH]c1=O (stereo not drawn)
Condition met

Evaluate `Cc1c(Cc2c(F)cccc2F)nc(N2CCCCC2)[nH]c1=O` : pEC50 at minimum 6?
Condition not met

Confirm if pEC50 reported for the compound `CC1CCN(c2nc(Cc3c(F)cccc3F)cc(=O)[nH]2)CC1` is 6 or above.
Condition not met

Determine whether this compound has pEC50 no lower than 6: CCCN(C)c1nc(C(C)c2c(F)cccc2F)cc(=O)[nH]1 (stereo not drawn)
Condition met

Hello, I need to know if CC(c1cc(=O)[nH]c(N(C)C)n1)c1c(F)cccc1F (stereo not drawn) has measured pEC50 not below 6. Thanks!
Condition met

# check: pEC50 of CCC(c1cc(=O)[nH]c(N(C)C)n1)c1c(F)cccc1F (stereo not drawn) is greater than or equal to 6
Condition met

Could you verify whether the entry `CCN(C)c1nc(Cc2c(F)cccc2F)cc(=O)[nH]1` shows pEC50 of no less than 6?
Condition not met

Could you verify whether the entry CCC(c1nc(N(C)C)[nH]c(=O)c1C)c1c(F)cccc1F (stereo not drawn) shows pEC50 of no less than 6?
Condition not met

###

Consider the following molecules and their measured pKi readings.
# System under test: Human immunodeficiency virus type 1 reverse transcriptase (Human immunodeficiency virus 1, UniProt Q72547, L100I)
# Experimental details: Inhibition of HIV1 reverse transcriptase L100I mutant
Scale note: pKi = -log10(concentration in M).

Recorded results for 6 molecules are shown here.
Molecule: Cc1c(C(C)c2c(F)cccc2F)nc(SC2CCCC2)[nH]c1=O (configuration not stated)
Measurement: 6.52
//
Molecule: CCCN(C)c1nc(C(C)c2c(F)cccc2F)c(C)c(=O)[nH]1 (configuration not stated)
Measurement: 6.74
//
Molecule: CN(C)c1nc(Cc2c(F)cccc2F)cc(=O)[nH]1
Measurement: 5.00
//
Molecule: Cc1c(Cc2c(F)cccc2F)nc(N(C)C)[nH]c1=O
Measurement: 5.00
//
Molecule: Cc1c(C(C)c2c(F)cccc2F)nc(N(C)C)[nH]c1=O (configuration not stated)
Measurement: 6.00
//
Molecule: CCCNc1nc(C(C)c2c(F)cccc2F)c(C)c(=O)[nH]1 (configuration not stated)
Measurement: 6.51

For the molecule Cc1c(C(C)c2c(F)cccc2F)nc(N2CCOCC2)[nH]c1=O (configuration not stated) , give its measured pKi value.
5.00

Supply reported pKi belonging to this molecule: Cc1c(C(C)c2c(F)cccc2F)nc(N2CCSCC2)[nH]c1=O (configuration not stated)
5.30

###

# Experimental details: Cytotoxicity against MT4 cells after 4 days by MTT method
# Assay type: cell-based
# Experimental context: human
Parameter measured: CC50 at 96 h

Compound: Cc1c(C(C)c2c(F)cccc2F)nc(N2CCCCCC2)[nH]c1=O (stereo unspecified)
CC50 at 96 h: > 72 µM
--
Compound: Cc1c(C(C)c2c(F)cccc2F)nc(SC2CCCC2)[nH]c1=O (stereo unspecified)
CC50 at 96 h: > 3 µM
--
Compound: O=c1cc(Cc2c(F)cccc2F)nc(N2CCCCCC2)[nH]1
CC50 at 96 h: > 78 µM

Supply recorded CC50 at 96 h for `Cc1c(Cc2c(F)cccc2F)nc(N(C)C)[nH]c1=O` here.
> 89 µM

Please report the measured CC50 at 96 h for `CCN(C)c1nc(Cc2c(F)cccc2F)c(C)c(=O)[nH]1`
> 85 µM

Specify measured CC50 at 96 h for CCN(C)c1nc(C(C)c2c(F)cccc2F)c(C)c(=O)[nH]1 (stereo unspecified) .
81 µM

###

pKi values by entry
# System under test: Human immunodeficiency virus type 1 reverse transcriptase (Human immunodeficiency virus 1, UniProt Q72547, K103N)
# Experimental details: Inhibition of HIV1 reverse transcriptase K103N mutant
By convention, pKi is the negative base-10 log of a molar concentration.

Worked examples follow.
Compound: Cc1c(C(C)c2c(F)cccc2F)nc(N(C)C(C)C)[nH]c1=O (stereo unspecified)
pKi: 7.10

Compound: Cc1c(C(C)c2c(F)cccc2F)nc(SC2CCCC2)[nH]c1=O (stereo unspecified)
pKi: 7.52

Compound: Cc1c(C(C)c2c(F)cccc2F)nc(N2CCCCC2)[nH]c1=O (stereo unspecified)
pKi: 6.22

Compound: Cc1c(Cc2c(F)cccc2F)nc(N(C)C)[nH]c1=O
pKi: 5.05

Please supply the value of reported pKi for the item `O=c1cc(Cc2c(F)cccc2F)nc(N2CCSCC2)[nH]1`
5.82

Using known records, supply pKi for Cc1c(C(C)c2c(F)cccc2F)nc(N2CCOCC2)[nH]c1=O (stereo unspecified)
5.48

###

# System under test: Human immunodeficiency virus type 1 reverse transcriptase (Human immunodeficiency virus 1, UniProt Q72547, V106A)
# Experimental details: Inhibition of HIV1 reverse transcriptase V106A mutant
pKi: −log10 of the molar value.
Lab note: anything with pKi at or over 7 counts as 1 (yes); the rest go in 0 (no).

Consider the following illustrative entries.
Compound: CCCNc1nc(C(C)c2c(F)cccc2F)c(C)c(=O)[nH]1 (stereo unspecified)
Assigned category: 1 (yes)
//
Compound: CN(C)c1nc(Cc2c(F)cccc2F)cc(=O)[nH]1
Assigned category: 0 (no)
//
Compound: COc1ccccc1N1CCN(c2nc(Cc3c(F)cccc3F)c(C)c(=O)[nH]2)CC1
Assigned category: 0 (no)
//
Compound: Cc1c(Cc2c(F)cccc2F)nc(N(C)C)[nH]c1=O
Assigned category: 0 (no)
//
Compound: CCN(C)c1nc(C(C)c2c(F)cccc2F)c(C)c(=O)[nH]1 (stereo unspecified)
Assigned category: 1 (yes)

Now consider a different compound.
// inclusive: pKi at least 7? input: `O=c1cc(Cc2c(F)cccc2F)nc(N2CCCCC2)[nH]1`
0 (no)
